Tested on: Fibroblast
Assay: Multiplex assay against human fibroblast
Assay type: toxicity, cell-based
Details: 12 h, 1 µM, compound concentration 1 uM, replicate 1
Could you please report measured Total Cell Count for the items listed next?
One number for each entry.

Give me Total Cell Count for each of these compounds, listed below.
1. O=C1N/C(=N/c2ccccc2F)S/C1=C\c1ccc(C(=O)O)cc1
2. O=C(Nc1ccc(-n2nc(-c3cccnc3)cc2C(F)(F)F)cn1)c1ccc(-c2ccccc2)c(F)c1
3. CCn1c(=O)c(-c2ccc(-c3cncs3)cc2Cl)cc2cnc(Nc3ccc(N4CCN(C)CC4)cc3)nc21
4. CN1CCN(C(=O)C(C)(C)c2ccc(C(=O)Nc3cn4cc(-c5cc(C(C)(C)C)cc(C(C)(C)C)c5)ccc4n3)cc2)CC1

1: 112; 2: 92; 3: 108; 4: 237

// provenance: ChEMBL document CHEMBL4689842
